- Tested on: Histophilus somni
- ASSAY INFO: minimum inhibitory concentration (MIC)
- TEST CONTEXT: isolate (source animal id): 183
The entries below come with measured minimum inhibitory concentration values attached.

Record excerpt, results attached:
# MOLECULE, minimum inhibitory concentration
data = [
    ("CS(=O)(=O)c1ccc([C@@H](O)[C@@H](CF)NC(=O)C(Cl)Cl)cc1", "≤ 0.25 µg/mL"),
    ("CNC(C)C1CCC(N)C(OC2C(N)CC(N)C(OC3OCC(C)(O)C(NC)C3O)C2O)O1 (stereo not drawn)", "≤ 1 µg/mL"),
]

Note: attention shifts to another entry.
IN: Which measured minimum inhibitory concentration value corresponds to `CCN1CCN(c2cc3c(cc2F)c(=O)c(C(=O)O)cn3C2CC2)CC1` ?
OUT: ≤ 0.12 µg/mL

====

- Tested on: Histophilus somni
- ASSAY INFO: minimum inhibitory concentration (MIC)
- TEST CONTEXT: isolate (source animal id): 142
ASSAY METRIC: minimum inhibitory concentration

# COMPOUND, ASSAY METRIC, TEST VALUE
measured = [
    ("NC[C@@H]1O[C@H](O[C@H]2[C@@H](O)[C@H](O[C@@H]3[C@@H](O)[C@H](N)C[C@H](N)[C@H]3O[C@H]3O[C@H](CN)[C@@H](O)[C@H](O)[C@H]3N)O[C@@H]2CO)[C@H](N)[C@@H](O)[C@@H]1O [Neomycin]", "minimum inhibitory concentration", "> 32 µg/mL"),
    ("CC1(C)S[C@@H]2[C@H](NC(=O)Cc3ccccc3)C(=O)N2[C@H]1C(=O)O [Penicillin]", "minimum inhibitory concentration", "≤ 0.12 µg/mL"),
]

Note: attention shifts to another entry.
IN: Which measured minimum inhibitory concentration value corresponds to COc1cc(Cc2cnc(N)nc2N)cc(OC)c1OC.Cc1cc(NS(=O)(=O)c2ccc(N)cc2)no1 [trimethoprim-sulfamethoxazole] ?
OUT: ≤ 2 µg/mL

====

- Test system: Enterococcus spp.
- ASSAY INFO: minimum inhibitory concentration (MIC)
- TEST CONTEXT: isolate (source animal id): 223
The entries below come with measured minimum inhibitory concentration values attached.

Record excerpt, results attached:
# COMPOUND, TEST VALUE
data = [
    ("CN(C)[C@@H]1C(O)=C(C(N)=O)C(=O)[C@@]2(O)C(O)=C3C(=O)c4c(O)cccc4[C@@](C)(O)[C@H]3C[C@@H]12 [Tetracycline]", "≤ 0.5 µg/mL"),
    ("CO/N=C(\\C(=O)N[C@@H]1C(=O)N2C(C(=O)O)=C(CSC(=O)c3ccco3)CS[C@H]12)c1csc(N)n1 [Ceftiofur]", "> 8 µg/mL"),
]

Note: attention shifts to another entry.
IN: Find the measured minimum inhibitory concentration: item CCCNC[C@]1(O)[C@H](C)O[C@@H](O[C@H]2[C@H](C)[C@@H](O[C@@H]3O[C@H](C)C[C@H](N(C)C)[C@H]3O)[C@](C)(O)C[C@@H](C)CN[C@H](C)[C@@H](O)[C@](C)(O)[C@@H](CC)OC(=O)[C@@H]2C)C[C@@]1(C)OC [Tulathromycin] , target or system Enterococcus spp..
OUT: ≤ 8 µg/mL

====

- Test system: Mannheimia haemolytica
- ASSAY INFO: minimum inhibitory concentration (MIC)
- TEST CONTEXT: isolate (source animal id): 324
The entries below come with measured minimum inhibitory concentration values attached.

Record excerpt, results attached:
# SMILES, minimum inhibitory concentration
measured = [
    ("CC[C@H]1OC(=O)C[C@@H](O)[C@H](C)[C@@H](O[C@@H]2O[C@H](C)[C@@H](O[C@H]3C[C@@](C)(O)[C@@H](O)[C@H](C)O3)[C@H](N(C)C)[C@H]2O)[C@@H](CC=O)C[C@@H](C)C(=O)/C=C/C(C)=C/[C@@H]1CO[C@@H]1O[C@H](C)[C@@H](O)[C@@H](OC)[C@H]1OC", "> 32 µg/mL"),
    ("CO/N=C(\\C(=O)N[C@@H]1C(=O)N2C(C(=O)O)=C(CSC(=O)c3ccco3)CS[C@H]12)c1csc(N)n1", "≤ 0.25 µg/mL"),
]

IN: Which measured minimum inhibitory concentration value corresponds to `CC[C@H]1OC(=O)C[C@@H](O)[C@H](C)[C@@H](O[C@@H]2O[C@H](C)[C@@H](O)[C@H](N(C)C)[C@H]2O)[C@@H](CCN2C[C@H](C)C[C@H](C)C2)C[C@@H](C)C(=O)/C=C/C(C)=C/[C@@H]1CO[C@@H]1O[C@H](C)[C@@H](O)[C@@H](OC)[C@H]1OC` ?
OUT: > 16 µg/mL

All values here come from the supplement of paper PMC8612539.
